Listing of entries alongside the reported P2X7 response (% of control).
STUDY SYSTEM: P2X7 (Homo sapiens)
Construct: expressed in transfected cells
Sequence (Q99572 whole entry): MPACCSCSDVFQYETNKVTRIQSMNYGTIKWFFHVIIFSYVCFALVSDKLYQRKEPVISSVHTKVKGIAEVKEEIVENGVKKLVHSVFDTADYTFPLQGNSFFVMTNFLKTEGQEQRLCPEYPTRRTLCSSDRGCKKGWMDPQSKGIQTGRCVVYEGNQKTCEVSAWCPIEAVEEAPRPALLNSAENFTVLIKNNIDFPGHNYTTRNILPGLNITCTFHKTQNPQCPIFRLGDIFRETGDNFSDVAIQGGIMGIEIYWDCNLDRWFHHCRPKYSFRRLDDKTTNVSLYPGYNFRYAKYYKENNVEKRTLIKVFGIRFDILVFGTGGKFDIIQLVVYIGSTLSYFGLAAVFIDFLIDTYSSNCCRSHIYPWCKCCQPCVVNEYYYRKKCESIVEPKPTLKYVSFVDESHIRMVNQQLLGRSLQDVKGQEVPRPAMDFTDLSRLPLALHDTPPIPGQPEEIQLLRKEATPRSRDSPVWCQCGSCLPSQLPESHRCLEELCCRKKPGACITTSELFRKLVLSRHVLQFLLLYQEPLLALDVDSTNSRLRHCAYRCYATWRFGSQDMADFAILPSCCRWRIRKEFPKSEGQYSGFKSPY
ASSAY PROCEDURE: ATP-induced YO-PRO-1 dye uptake in HEK-hP2X7 cells
Assay type: cell-based
CONDITION DETAILS: screen for PAM activity; compound 10 µM injected 60 s before ATP
Numbered stars: 1 amine (or outer) side, 2 acyl side, 3 side chain; on linkers, the order of the positions; unused ones are H or OH. Bridge positions count the residues as written; N and C are the ends. Square brackets hold non-standard residues; d marks the D form. Peptide text beside a SMILES is read from it. I, II: the chains in the order shown. Actinocin(9to1) = Cc1c2oc3c(C)ccc(C(=O)[*:1])c3nc-2c(C(=O)[*:2])c(N)c1=O; NMeV = CN[C@H](C(=O)O)C(C)C; Sar = CNCC(=O)O
RECORDED METRIC: P2X7 response (% of control)

# MOLECULE, STUDY SYSTEM, OBSERVED RESULT
rows = [
    ("CC(C)=CCC[C@@H](C)C1=C(O)C(=O)C(C)=CC1=O", "P2X7 (Homo sapiens)", "148.44 % of control"),
    ("CC(=O)CCCCn1c(=O)c2c(ncn2C)n(C)c1=O [Pentoxifylline, reference compound]", "P2X7 (Homo sapiens)", "140.48 % of control"),
    ("c1cc2c(c3c1C[C@@H]1NCCc4cc5c(c-3c41)OCO5)OCO2", "P2X7 (Homo sapiens)", "152.97 % of control"),
    ("COC1=C(N)C(=O)c2nc(-c3nc(C(=O)O)c(C)c(-c4ccc(OC)c(OC)c4O)c3N)ccc2C1=O", "P2X7 (Homo sapiens)", "139.02 % of control"),
    ("COC1C(C)OC(OC2CC(C)(O)Cc3cc4c(c(O)c32)C(=O)c2c(O)cc3c(c2C4=O)OC2OC3(C)C(O)C(N(C)C)C2O)C(OC)C1(C)OC (stereo not drawn)", "P2X7 (Homo sapiens)", "155.77 % of control"),
    ("Cc1c2oc3c(C)ccc(C(=O)N[C@@H]4C(=O)N[C@H](C(C)C)C(=O)N5CCC[C@H]5C(=O)N(C)CC(=O)N(C)[C@@H](C(C)C)C(=O)O[C@@H]4C)c3nc-2c(C(=O)N[C@@H]2C(=O)N[C@H](C(C)C)C(=O)N3CCC[C@H]3C(=O)N(C)CC(=O)N(C)[C@@H](C(C)C)C(=O)O[C@@H]2C)c(N)c1=O [Actinomycin] (I: T[dV]P[Sar][NMeV] / II: T[dV]P[Sar][NMeV]; ester I:1-I:C, II:1-II:C; linker I:N-II:N via Actinocin(9to1))", "P2X7 (Homo sapiens)", "188.44 % of control"),
    ("COc1cc([C@@H]2c3cc4c(cc3[C@H](O)[C@H]3COC(=O)[C@@H]23)OCO4)cc(OC)c1OC", "P2X7 (Homo sapiens)", "145.86 % of control"),
    ("Nc1nc(=O)c2c([nH]1)NCC(CNc1ccc(C(=O)N[C@@H](CCC(=O)O)C(=O)O)cc1)N2C=O (mixture of isomers) [Folinic acid, reference compound]", "P2X7 (Homo sapiens)", "160.00 % of control"),
    ("CC(=O)O[C@H]1C(=O)[C@@]2(C)[C@H]([C@H](OC(=O)c3ccccc3)[C@]3(O)C[C@H](O)C(C)=C1C3(C)C)[C@]1(OC(C)=O)CO[C@@H]1C[C@@H]2O", "P2X7 (Homo sapiens)", "136.25 % of control"),
    ("CC(=O)CCC(=O)O", "P2X7 (Homo sapiens)", "134.82 % of control"),
    ("COc1ccc2c(c1OC)-c1c(OC)c(OC)cc3c1[C@H](C2)NCC3", "P2X7 (Homo sapiens)", "127.21 % of control"),
    ("COc1cc2c3c(c1O)Oc1ccc(cc1)C[C@@H]1c4c(cc(OC)c(OC)c4Oc4ccc(cc4)C[C@@H]3N(C)CC2)CCN1C", "P2X7 (Homo sapiens)", "148.84 % of control"),
]

Cited source: paper PMC12062478
